Where do these numbers come from? They come from patent US12590062B2.

measurement_target: interaction between the recombinant extracellular domain (ECD) of PD-1 and native cell-bound PD-L1 (Homo sapiens, UniProt Q9NZQ7)
Sequence (Q9NZQ7 19-290): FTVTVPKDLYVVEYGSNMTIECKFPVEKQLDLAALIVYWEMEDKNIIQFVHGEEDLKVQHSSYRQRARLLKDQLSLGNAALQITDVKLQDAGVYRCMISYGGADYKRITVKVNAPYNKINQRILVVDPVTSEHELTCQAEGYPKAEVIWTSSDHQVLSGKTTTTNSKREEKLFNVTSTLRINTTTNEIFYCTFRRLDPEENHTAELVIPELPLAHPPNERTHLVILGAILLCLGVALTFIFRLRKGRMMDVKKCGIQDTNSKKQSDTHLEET
assay_procedure: CHO/PD-L1 cell capture assay
test_parameters: CHO cells overexpressing PD-L1, pre-incubated 1 hr with compound, captured on biotinylated Fc-PD-1 coated plates, 75 min at room temperature
pEC50: −log10 of the molar value.
Quick list: pEC50 per entry.

- molecule: "COc1nc(O[C@H]2CCc3c(-c4cccc5c4CC[C@@H]5Oc4nc(OC)c(CNC[C@@H](O)CC(=O)O)cc4Cl)cccc32)c(Cl)cc1CNC[C@@H](O)CC(=O)O [Example 6]"
  pEC50: 7.20
- molecule: "Cc1c(COc2nc(OCCC(N)=O)c(CNC[C@@H](O)CC(=O)O)cc2Br)cccc1-c1cccc(COc2nc(OCCC(N)=O)c(CNC[C@@H](O)CC(=O)O)cc2Br)c1C [Example 145]"
  pEC50: 7.20
- molecule: "COc1nc(OCc2cccc(-c3cccc(-c4ccc(OCCNC[C@H](O)CC(=O)O)cc4)c3C)c2C)c(Cl)cc1CNC[C@H](O)CC(=O)O [Example 110]"
  pEC50: 8.19
- molecule: "Cc1c(COc2cc(OCc3cncc(C#N)c3)c(CNCCO)cc2Cl)cccc1-c1cccc(COc2cc(OCc3cncc(C#N)c3)c(CNCCO)cc2Cl)c1 [Example 20]"
  pEC50: 6.12
- molecule: "Cc1c(COc2nc(OCc3cc(C#N)cc(C#N)c3)c(CN[C@@](C)(CO)C(=O)O)cc2Cl)cccc1-c1cccc(COc2nc(OCc3cc(C#N)cc(C#N)c3)c(CN[C@@](C)(CO)C(=O)O)cc2Cl)c1C [Example 123]"
  pEC50: 6.86
- molecule: "N#Cc1cncc(COc2nc(O[C@H]3CCc4c(-c5cccc6c5CC[C@@H]6Oc5nc(OCc6cncc(C#N)c6)c(CNC[C@@H](O)CC(=O)O)cc5Br)cccc43)c(Br)cc2CNC[C@@H](O)CC(=O)O)c1 [Example 4]"
  pEC50: 7.81
- molecule: "Cc1c(COc2cc(OCc3cncc(C#N)c3)c(CNC[C@@H](O)CC(=O)O)cc2Cl)cccc1-c1cccc2c1CCN2C(=O)c1ccc(CNC[C@@H](O)CC(=O)O)c(OCc2cncc(C#N)c2)c1 [Example 206]"
  pEC50: 6.79
- molecule: "COc1nc(OCc2cccc(-c3cccc(COc4nc(OC)c(CNC[C@@H](O)CC(=O)O)cc4C(F)(F)F)c3C)c2C)c(C(F)(F)F)cc1CNC[C@@H](O)CC(=O)O [Example 160]"
  pEC50: 6.72
- molecule: "Cc1c(COc2nc(OCc3cncc(S(C)(=O)=O)c3)c(CNC[C@@H](O)CC(=O)O)cc2Br)cccc1-c1cccc(COc2nc(OCc3cncc(S(C)(=O)=O)c3)c(CNC[C@@H](O)CC(=O)O)cc2Br)c1C [Example 42]"
  pEC50: 6.83
- molecule: "COc1nc(OCc2cccc(-c3cccc(COc4nc(OC)c(CNCCCC(=O)O)cc4Cl)c3C)c2C)c(Cl)cc1CNCCCC(=O)O [Example 183]"
  pEC50: 7.16
